System: β-galactosidase in CMV-LacZ C2C12 myotubes
Test: CMV-LacZ secondary screen in C2C12 myotubes (β-Gal stabilizing assay)
Format: cell-based, mouse
Conditions: 40 uM; C2C12 CMV-LacZ myotubes; fold relative to DMSO
Description: In order to determine compounds that acted to stabilize β-gal in myogenic cells, a CMV-LacZ C2C12 cell line was used in a secondary screen. The EGFP gene from the pEGFP (Clontech) vector was replaced by LACZ PCR product with digests of the vector/PCR product performed using EcoRI (NEB) and NotI (NEB) and ligated using T4 DNA Ligase (NEB) following standard procedures to produce the CMV-LACZ vector. […]
Given measured CMV-LACZ in Myotubes, signal relative to DMSO, output Satisfied if it is greater than or equal to 1 and Not satisfied if not.

Example cases with answers are listed next.
{"columns": ["compound", "label_value"],
 "data": [
  ["CCC(CC)C(=O)Nc1c(C(=O)N2CCN(c3ccccc3)CC2)oc2ccccc12", "Satisfied"],
  ["Cc1cc2ccccc2n2c(SCC(=O)NCc3cccs3)nnc12", "Satisfied"],
  ["COc1cc(C=O)ccc1OCC(=O)Nc1ccc2c(c1)OCO2", "Satisfied"]
]}

Item `CC(=O)Nc1ccc(-n2c(C)nc(=O)c(-c3ccccc3)c2C)cc1` with CMV-LACZ in Myotubes, signal relative to DMSO of 1 or above?
Satisfied

// inclusive: CMV-LACZ in Myotubes, signal relative to DMSO at least 1? input: `Cc1nc2c(cnn2-c2ccccc2)c(=O)n1/N=C/c1ccccc1`
Not satisfied

For this compound, is measured CMV-LACZ in Myotubes, signal relative to DMSO 1 or higher? `CCOc1cc(C)c(S(=O)(=O)N2CCCCC2)cc1C`
Satisfied

# check: CMV-LACZ in Myotubes, signal relative to DMSO of `CNc1cc([N+](=O)[O-])ccc1OCc1ccccc1` is greater than or equal to 1
Not satisfied

Is the recorded value of CMV-LACZ in Myotubes, signal relative to DMSO equal to or greater than 1 for this compound? COc1ccc(CNC(=O)C2CCCN(S(=O)(=O)c3c(C)noc3/C=C/N(C)C)C2)cc1 (stereo not drawn)
Satisfied

Tell me whether CMV-LACZ in Myotubes, signal relative to DMSO is at least 1 here: `O=C(Cn1cccc1C(=O)c1ccccc1)NCCCc1ccccc1`
Not satisfied

Determine whether this compound has CMV-LACZ in Myotubes, signal relative to DMSO no lower than 1: `C=CCN(CC=C)C(=O)c1ccc(OC2CCN(S(=O)(=O)N(C)C)CC2)cc1`
Not satisfied

Could you verify whether the entry `COc1ccc(N=Nc2ccc(N)nc2N)cc1` shows CMV-LACZ in Myotubes, signal relative to DMSO of no less than 1?
Satisfied

Answer whether CMV-LACZ in Myotubes, signal relative to DMSO of CC1CCCCC1NC(=O)CSc1nnc(COc2ccc(Cl)cc2)o1 (stereo not drawn) is greater than or equal to 1.
Satisfied

In plain terms: is recorded CMV-LACZ in Myotubes, signal relative to DMSO at least 1 for `CN(C)CCNc1ncnc2sc(-c3ccccc3)cc12` ?
Not satisfied

Record `Cc1ccc(NS(=O)(=O)c2cccc(C(=O)O)c2)cc1S(=O)(=O)N1CCOCC1` ; criterion: CMV-LACZ in Myotubes, signal relative to DMSO no lower than 1. Met?
Satisfied
